Run Description: inhibitors of DENV2 cytopathic effect, primary screen, cell-based, plate reader, single concentration (AID 651640);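 note: 0% = median of neutral control wells and 100% = median of positive control wells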
Test Parameters: DENV2-infected cells, cytopathic effect rescue, at 9.99 µM, active compounds read high
The campaign covered roughly 350,000 compounds. About 6,000 (1.7%) were called active. Another 5% or so got no clear call; they are omitted. The sample holds actives, similar compounds and a random draw of the others, so the mix is not that of the screen.
Would you mind telling me the reported CPE inhibition of each entry?

What does the data say about its CPE inhibition? Entry: COc1ccc(C#Cc2ccc3c(c2)[C@]2(C(=O)N3)[C@H](C(=O)N3CCCCCCC3)[C@H]3C(=O)O[C@H](c4ccccc4)[C@H](c4ccccc4)N3[C@@H]2c2ccc(O)cc2)cc1
16.4% (inactive)

What does the data say about its CPE inhibition? Entry: COc1ccc(C#Cc2ccc3c(c2)[C@]2(C(=O)N3)[C@H](c3ccccc3OCCO)N3[C@H](c4ccccc4)[C@H](c4ccccc4)OC(=O)[C@H]3[C@@H]2C(=O)N2CCCCCCC2)cc1
22.3% (active)

What does the data say about its CPE inhibition? Entry: O=C(Cc1ccccn1)N[C@@H]1CC[C@H](CCn2cc(-c3ccc(F)cc3)nn2)O[C@@H]1CO
-1.64% (inactive)

What does the data say about its CPE inhibition? Entry: CO[C@@H]1CN(C)C(=O)c2cc(NC(=O)c3ccccc3)ccc2OC[C@@H](C)N(C(C)=O)C[C@@H]1C
-5.72% (inactive)

What does the data say about its CPE inhibition? Entry: O=C1O[C@@H](c2ccccc2)[C@@H](c2ccccc2)N2[C@@H](c3ccccc3OCCO)[C@]3(C(=O)Nc4ccc(C#CC5(O)CCCCCC5)cc43)[C@@H](C(=O)N3CCCCCCC3)[C@H]12
-1.79% (inactive)

What does the data say about its CPE inhibition? Entry: C[C@H](NC(=O)C[C@H]1CC[C@H]2[C@@H](COC[C@H](O)CN2C(=O)Nc2cc(Cl)cc(Cl)c2)O1)c1ccccc1
-1.1% (inactive)
